assayed target: Serine/threonine-protein kinase D1 (Homo sapiens) (UniProt Q15139)
Sequence (Q15139 whole entry, looked up): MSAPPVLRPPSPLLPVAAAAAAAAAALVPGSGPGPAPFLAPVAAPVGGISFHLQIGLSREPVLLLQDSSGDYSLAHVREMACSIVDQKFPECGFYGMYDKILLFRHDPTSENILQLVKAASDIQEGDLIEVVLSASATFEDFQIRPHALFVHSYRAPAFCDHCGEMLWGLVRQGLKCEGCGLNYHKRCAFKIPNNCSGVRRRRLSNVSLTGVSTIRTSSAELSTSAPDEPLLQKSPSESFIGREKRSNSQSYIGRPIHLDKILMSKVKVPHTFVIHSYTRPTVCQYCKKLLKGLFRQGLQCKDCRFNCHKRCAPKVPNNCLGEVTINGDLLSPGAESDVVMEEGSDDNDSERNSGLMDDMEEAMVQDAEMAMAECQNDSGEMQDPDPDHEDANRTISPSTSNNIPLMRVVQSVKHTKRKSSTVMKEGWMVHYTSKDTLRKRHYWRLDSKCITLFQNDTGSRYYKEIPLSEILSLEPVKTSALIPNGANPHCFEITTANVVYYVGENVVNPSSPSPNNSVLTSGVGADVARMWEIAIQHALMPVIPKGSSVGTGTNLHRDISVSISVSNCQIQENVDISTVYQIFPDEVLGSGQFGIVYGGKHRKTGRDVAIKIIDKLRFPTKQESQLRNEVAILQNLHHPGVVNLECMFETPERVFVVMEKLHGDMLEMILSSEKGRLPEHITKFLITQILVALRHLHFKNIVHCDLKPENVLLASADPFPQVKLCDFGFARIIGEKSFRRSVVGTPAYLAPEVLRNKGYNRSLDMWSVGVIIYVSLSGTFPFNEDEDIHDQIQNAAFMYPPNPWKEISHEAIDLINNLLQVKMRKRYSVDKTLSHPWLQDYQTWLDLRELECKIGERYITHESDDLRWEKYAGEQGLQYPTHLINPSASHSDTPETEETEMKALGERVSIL
assay notes: protein kinase D1 activity blockers – biochemical, fluorescence polarization, 140K library hits, repeat, confirmation (AID 1286)
experimental context: PKD1 kinase, at 10 µM, stronger effect = higher value
Records with an inconclusive call do not appear.
property: inhibition (%)
One number for each entry, in %.

compound	inhibition [%]
CCOC(=O)c1cccc(NC(=O)CCS(=O)(=O)c2cccc3nsnc23)c1	28.8
CC1CCCC(C)N1C(=O)Cn1cc(/C=C2/C(=O)Nc3ccccc32)c2ccccc21 (stereo unspecified)	2.88
O=C(O)C1CCN(c2ncccn2)CC1	-5.12
O=C1c2ccccc2-c2onc3ccc(NCc4ccco4)c1c23	32.1
CCn1c(CSc2ncccn2)nnc1SCC(=O)N1CCc2ccccc21	-1.28

Each of the following entries comes with a recorded value; kindly state inhibition for each.
1. Cc1ccc(NC(=O)CNc2ccc(Cl)cc2F)cc1
2. Cc1cc(NCCCN)nc(-c2ccccc2O)n1
3. C=CCn1c(SC(C)C(=O)NCc2ccc3c(c2)OCO3)nnc1C1CCCCC1 (stereo unspecified)
4. CCC1=NNc2cccc3c(OC)ccc1c23
5. Cc1c(N/N=C(\C#N)C(=O)c2ccc(Cl)cc2)c(=O)n(-c2ccccc2)n1C
6. O=C(NCCOC(=O)c1ccc(C(=O)OCCNC(=O)c2cccnc2)s1)c1cccnc1
7. Cc1cc2nc3c(=O)n(C4CCCCC4)c(=O)[nH]c3nc2cc1N

Response:
1. 0.85
2. 59.5
3. -1.58
4. 89.7
5. 18
6. -5.26
7. 21.6

Each of the following entries comes with a recorded value; kindly state inhibition for each.
1. COC(=O)c1cccc2c1-c1ccccc1/C2=N/O
2. O=C(CN1CCCC1)Nc1c2c(nc3ccccc13)N(Cc1ccccc1)CC2
3. Cc1[nH]nc2c1-c1nc3ccccc3nc1C(C)(C)C2
4. NC(=O)c1cn(C2OC(CO)C(O)C2O)c2ncnc(N)c12 (stereo unspecified)
5. COc1ccc2nc3sc(C(=O)NCCCN4CCc5ccccc5C4)cc3cc2c1

Response:
1. 19.8
2. -4.44
3. 40
4. 90.3
5. 7.3

Each of the following entries comes with a recorded value; kindly state inhibition for each.
1. NC(N)=NC(=O)c1nc(Cl)c(N)nc1N
2. O=C1CC(N2CCN(c3ccccc3Cl)CC2)C(=O)N1c1cccc(F)c1 (stereo unspecified)
3. CC(C)CCN1CN(S(=O)(=O)c2cccs2)c2nc3ccccc3nc21
4. Cc1ccc(NC(=O)C2CCCN(S(=O)(=O)c3c(C)noc3C)C2)c(C)c1 (stereo unspecified)
5. Nc1nc2ccc([N+](=O)[O-])c(N)c2s1
6. CCCNC(=O)CN(c1ccc(F)cc1)S(=O)(=O)c1ccc2c(c1)OCCO2

Response:
1: 58.6; 2: -6.73; 3: -0.214; 4: -2.05; 5: 69.9; 6: -8.66

----------
assayed target: Serine/threonine-protein kinase D1 (Homo sapiens) (UniProt Q15139)
assay notes: protein kinase D1 activity blockers – biochemical, fluorescence polarization, 140K library hits, repeat, confirmation (AID 1286)
experimental context: PKD1 kinase, at 10 µM, stronger effect = higher value
Records with an inconclusive call do not appear.
property: inhibition (%)
Answers are plain numbers, in %.

Each of the following entries comes with a recorded value; kindly state inhibition for each.
1. O=C(Nc1ccc(CN2CCOCC2)cc1)c1ccc(-c2cccc(Cl)c2)o1
2. Cc1ccc(C(=O)NNC2=Nc3cccc4cccc2c34)cc1
3. Nc1nc2ccccc2n1/N=C/c1ccc([N+](=O)[O-])s1
4. O=C(c1cc(-c2ccccc2)nc2ccccc12)N1CCN(c2ccccn2)CC1
5. Cn1c(=O)[nH]c(=O)c2c1nc(NC1CCCCC1)n2CC(=O)NC1CCCCC1

Response:
1. 52.6
2. 6.45
3. 34.7
4. 0.468
5. -11.5

Each of the following entries comes with a recorded value; kindly state inhibition for each.
1. COc1ccc(C2C(C(=O)c3cccs3)=C(O)C(=O)N2c2nncs2)cc1 (configuration not stated)
2. CCN(CC)c1ccc(NC(=O)COc2ccccc2C#N)cc1S(=O)(=O)Nc1ccc(OC)cc1

Response:
1. 35.1
2. -2.22

----------
assayed target: Serine/threonine-protein kinase D1 (Homo sapiens)
assay notes: protein kinase D1 activity blockers – biochemical, fluorescence polarization, 140K library hits, repeat, confirmation (AID 1286)
experimental context: PKD1 kinase, at 10 µM
Records with an inconclusive call do not appear. The source made the active and inactive calls. How the calls were made is not given here.
Thanks in advance; please answer with one of these: 1.0 for active, 0.0 for inactive

# example entries with known answers
compound	label class
COc1ccccc1C(=O)NN1C(=O)C2C3C=CC(O3)C2C1=O (stereo not drawn)	0.0
CC(OC(=O)c1ccc(NS(=O)(=O)c2cccs2)cc1)C(=O)N(C)C1CCCCC1 (stereo not drawn)	0.0
COc1cc(C2=NOC(C(=O)NCc3ccco3)C2)cc(OC)c1OC (stereo not drawn)	0.0
Cc1cc(N=CC2=C(O)CC(C)(C)CC2=O)no1	0.0
CCOC(=O)N1CCC(NS(=O)(=O)c2cc(Br)cc3c2N(C(=O)CC)CC3)CC1	0.0

Query: What did this assay record as the result for O=C1Nc2ccccc2/C1=C/c1cnc[nH]1 ?
Response: 0.0

Query: What did this assay record as the result for CS(=O)(=O)N1CCN(c2ccc(NC(=O)c3ccc(Br)o3)cc2)CC1 ?
Response: 0.0

Query: What did this assay record as the result for CCOC(=O)N1CCC(N2CCN(S(=O)(=O)CC)CC2)CC1 ?
Response: 0.0

----------
Kindly state inhibition for each of the entries shown.
assayed target: Serine/threonine-protein kinase D1 (Homo sapiens) (UniProt Q15139)
assay notes: protein kinase D1 activity blockers – biochemical, fluorescence polarization, 140K library hits, repeat, confirmation (AID 1286)
experimental context: PKD1 kinase, at 10 µM, stronger effect = higher value
Inconclusive results are not listed.
Answers are plain numbers, in %.

These solved cases illustrate the format of a correct answer.
molecule	test result
Clc1cncc(Cl)c1N/N=C/c1ccncc1	77.4
Cn1c(=O)c(NCCO)c2c3c(cccc31)C(=O)c1ccccc1-2	95.8
CS(=O)(=O)N1CCN(c2ccccc2NC(=O)c2ccc(Br)o2)CC1	96.2
O=C1CCCc2c1cc(C(=O)NCc1ccco1)c(=O)n2-c1ccccc1	-5.46
CN1CCN(c2ccccc2NC(=O)c2ccc(-c3cccc([N+](=O)[O-])c3)o2)CC1	7.36
O=C(Nc1ccccc1)ON=C1c2ccccc2-c2ccccc21	17.2
Clc1ccc(Nc2ccc(-n3ccnc3)nn2)cc1Cl	-1.8
O=C(Nc1ccccc1Cl)ON=C1c2ccccc2-c2ccccc21	14.4

Each of the following entries comes with a recorded value; kindly state inhibition for each.
1. COC(=O)c1ccccc1OCC(=O)NC1CCCCC1
2. CCOc1cccc(C2C(C(=O)c3ccc(C)o3)=C(O)C(=O)N2c2nccs2)c1 (stereo not given)
3. Cc1c(C(=O)NCc2cccnc2)sc2nc(-c3ccc(F)cc3)cn12
4. CC(=O)Nc1ccc2c(c1)c1ccccc1n2C(C)=O
5. CN1CCN(c2cccc3c2C(=O)c2ccccc2C3=O)CC1

Response:
1: -3.26; 2: 73.4; 3: -3.04; 4: 14.5; 5: 34.4

Each of the following entries comes with a recorded value; kindly state inhibition for each.
1. NC(=NCCc1c[nH]c2ccccc12)NS(=O)(=O)c1cc(F)ccc1F
2. CCCCn1c(=O)[nH]c2nc3cc(N)ccc3nc2c1=O

Response:
2.31
31.1
